Every entry's value here was drawn from patent US20060079677A1.

System: KB-A1 resistant line (multi-drug resistance induced using adriamycin)
experiment-summary: In vitro cytotoxicity, Microculture Tetrazolium Assay
Type: cell-based, human
stated-conditions: Homo sapiens, 96 h; KB-A1, incubated 4 days, inhibition of proliferation by 50%
property-measured: pIC50
pIC50 field: float, defined as -log10 of concentration (mol/L).

## Input // Input: COc1ccc(CCN2C=CC=C3C2=Nc2ccccc2OS3(=O)=O)cc1 . Output its pIC50 only.
## Output 7.88
